Target: Aβ40 (Homo sapiens)
Construct: purchased AnaSpec; host or cells: synthetic peptide
Sequence (P05067 672-711 limits assumed): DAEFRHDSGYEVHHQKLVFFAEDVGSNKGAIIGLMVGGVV
Assay: ThT fluorescence assay of Aβ monomer aggregation
Type: biochemical
Settings: pH 8, 100 µM compound, 40 μM Aβ40 monomer, 40 mM Tris-HCl pH 8.0, 25 °C; mean ± SEM, n = 3–5; N.E. = not significantly different from control samples; read-out: Plateau Reduction (% Inhibition)
Description: Synthetic Aβ40 was used in this study because it is the predominant isoform found in amyloid plaques isolated from AD brain [12]. […] The plateau reduction (Figure 2A), which indicates inhibition that reduces the extent of Aβ aggregation, was defined as the percentage decrease of the plateau ThT fluorescence in the presence of inhibitor, P2, compared to the plateau ThT fluorescence in the absence of inhibitor, P1. […]
What inhibition at 100 µM was measured for each of the following?
API: value field is a number in %; no unit string.

Report inhibition at 100 µM under test system Aβ40 (Homo sapiens) for CN(C)Cc1ccc(CSCCN2C(=O)c3cccc4cccc(c34)C2=O)o1 [Compound 3] .
60.9

Report inhibition at 100 µM under test system Aβ40 (Homo sapiens) for O=C1c2cccc3cc([N+](=O)[O-])cc(c23)C(=O)N1CCc1ccco1 [Compound 11] .
60.3

Report inhibition at 100 µM under test system Aβ40 (Homo sapiens) for CN(C)Cc1ccc(CSCCN2C(=O)c3cccc4cc([N+](=O)[O-])cc(c34)C2=O)o1 [Compound 6] .
71.8

Report inhibition at 100 µM under test system Aβ40 (Homo sapiens) for CN(C)Cc1ccc(CSCCN2C(=O)c3ccc([N+](=O)[O-])cc3C2=O)o1 [Compound 5] .
39.1

Report inhibition at 100 µM under test system Aβ40 (Homo sapiens) for CN(C)Cc1ccc(C[S+]([O-])CCN2C(=O)c3cccc4cccc(c34)C2=O)o1 (centres unmarked) [Compound 14] .
20.1

Report inhibition at 100 µM under test system Aβ40 (Homo sapiens) for CN(C)Cc1ccc(CCN2C(=O)c3cccc4cc([N+](=O)[O-])cc(c34)C2=O)o1 [Compound 12] .
65.6

Report inhibition at 100 µM under test system Aβ40 (Homo sapiens) for C[N+](C)([O-])Cc1ccc(CS(=O)(=O)CCN2C(=O)c3cccc4cc([N+](=O)[O-])cc(c34)C2=O)o1 [Compound 15] .
20.4

Report inhibition at 100 µM under test system Aβ40 (Homo sapiens) for CN(C)Cc1ccc(C[S+]([O-])CCN2C(=O)c3cccc4cc([N+](=O)[O-])cc(c34)C2=O)o1 (centres unmarked) [Compound 13] .
26.8

Report inhibition at 100 µM under test system Aβ40 (Homo sapiens) for CN(C)Cc1nc(CSCCN2C(=O)c3cccc4cc([N+](=O)[O-])cc(c34)C2=O)cs1 [Compound 10] .
54.2

Report inhibition at 100 µM under test system Aβ40 (Homo sapiens) for CN(C)Cc1ccc(CSCCN2C(=O)c3cccc4c(Cl)ccc(c34)C2=O)o1 [Compound 8] .
65.8

Report inhibition at 100 µM under test system Aβ40 (Homo sapiens) for CN(C)Cc1nc(CSCCN2C(=O)c3cccc4cccc(c34)C2=O)cs1 [Compound 9] .
61.4

The reported measurements were obtained from paper PMC8003314.
